biological target: T1, human TSLP (human, UniProt Q969D9 29-159); assay: SPR
T1 construct: also called hTSLP; rhTSLP
readout type: kon (M⁻¹ s⁻¹)
Express your answer in M⁻¹ s⁻¹, writing the number without its unit.

Completed entries (count: 3):
binder	observed
BDG38.080 (antibody, V domains shown, IgG1) VH: QMQLVESGGGVVQPGRSLRLSCAASGFAFRTYGMHWVRQAPGKGLEWVAVIWYDGSATHYADSVKGRFTITRDNSKNTLNLQMNSLRAEDTAVYYCVRAPQWYLSAEAFDLWGQGTMVTVSS VL: SYVLTQPPSVSVAPGETATITCGGNLIGAYLVHWYQQKPGQAPVLVIYDDSDRPDRIPERFSGSNSGNTATLTISRVEAGDEADYYCQVWDHNTNHMVFGGGTKLTVL	2.5e+06
BDG38.075 (antibody, V domains shown, IgG1) VH: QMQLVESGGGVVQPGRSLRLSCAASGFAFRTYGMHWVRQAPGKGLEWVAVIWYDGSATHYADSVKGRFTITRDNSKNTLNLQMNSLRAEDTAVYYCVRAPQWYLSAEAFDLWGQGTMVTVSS VL: SYVLTQPPSVSVAPGETATITCGGNLIGAYLVHWYQQKPGQAPVLVIYDDVDRPARIPERFSGSNSGNTATLTISRVEAGDEADYYCQVWDHDTNTMVFGGGTKLTVL	1.98e+06
BDG38.081 (antibody, V domains shown, IgG1) VH: QMQLVESGGGVVQPGRSLRLSCAASGFAFRTYGMHWVRQAPGKGLEWVAVIWDDGSNTHYADSVKGRFTITRDNSKNTLNLQMNSLRAEDTAVYYCVRAPQWYLTAEAFDLWGQGTMVTVSS VL: SYVLTQPPSVSVAPGQTARITCGGNMIGAYLVHWYQQKPGQAPLLVIYDDVDRPDRIPERFSGSNSGNTATLTISRVEAGDEADYYCQVWDHNTQQMVFGGGTKLTVL	1.81e+06

IN: Using the record for BDG38.078 (antibody, V domains shown, IgG1) VH: QMQLVESGGGVVQPGRSLRLSCAASGFEFRTYGMHWVRQAPGKGLEWLGVIWYDGSNTHYADSVKGRFTITRDNSKNTLNLQMNSLRVEDTAVYYCVRAPQWYLTAEAFDLWGQGTMVTVSS VL: SYILTQPPSVSVAPGETATITCGGNLIGARLVHWYQQKPGQAPVLVIYDDSDRPSRIPERFSGSNIGNTATLTIERVEAGDEADYYCQVWDYYSDHMVFGGGTKLTVL , state its measured kon.
OUT: 1.28e+06
